test system: Bacillus subtilis ATCC 6633; test: MIC against bacteria (Table I), strain (14); format: cell-based; conditions: ATCC6633; (14) Bacillus subtilis ATCC 6633; read-out: MIC
Items are presented alongside their recorded MIC.
PROPERTY_LABEL: MIC (µg/mL)

>>> quantitative_readout("O=C(O)CSc1nnc(SCC2=C(C(=O)O)N3C(=O)[C@@H](NC(=O)[C@H](NC(=O)c4cnccc4O)c4ccc(O)cc4)[C@H]3SC2)s1 [Example 33]")
0.78
>>> quantitative_readout("COc1ccncc1C(=O)N[C@@H](C(=O)N[C@@H]1C(=O)N2C(C(=O)O)=C(CSc3nnc(SCC(=O)O)s3)CS[C@H]12)c1ccccc1 [Example 26]")
0.78
>>> quantitative_readout("O=C(O)C1=C(CSc2nnc(C(=O)O)s2)CS[C@@H]2[C@H](NC(=O)[C@H](NC(=O)c3cnccc3O)c3ccccc3)C(=O)N12 [Example 11]")
0.39
>>> quantitative_readout("Cc1ncc(C(=O)N[C@@H](C(=O)N[C@@H]2C(=O)N3C(C(=O)O)=C(CSc4nnc(SCC(=O)O)s4)CS[C@H]23)c2ccccc2)c(O)n1 [Example 20]")
3.13
>>> quantitative_readout("O=C(O)Cn1nnnc1SCC1=C(C(=O)O)N2C(=O)[C@@H](NC(=O)[C@H](NC(=O)c3cnccc3O)c3ccccc3)[C@H]2SC1 [Example 15]")
0.39
>>> quantitative_readout("CC(C)(Sc1nnc(SCC2=C(C(=O)O)N3C(=O)[C@@H](NC(=O)[C@H](NC(=O)c4cnccc4O)c4ccccc4)[C@H]3SC2)s1)C(=O)O [Example 22]")
0.78
>>> quantitative_readout("Cc1cc(O)c(C(=O)N[C@@H](C(=O)N[C@@H]2C(=O)N3C(C(=O)O)=C(CSc4nnc(SCC(=O)O)s4)CS[C@H]23)c2ccccc2)cn1 [Example 29]")
0.78
>>> quantitative_readout("O=C(O)CCSc1nnc(SCC2=C(C(=O)O)N3C(=O)[C@@H](NC(=O)[C@H](NC(=O)c4cnccc4O)c4ccccc4)[C@H]3SC2)s1 [Example 5]")
0.39
>>> quantitative_readout("Nc1nc(SCC(=O)O)cc(SCC2=C(C(=O)O)N3C(=O)[C@@H](NC(=O)[C@H](NC(=O)c4cnccc4O)c4ccccc4)[C@H]3SC2)n1 [Example 19]")
0.78
>>> quantitative_readout("Cc1nnc(SCC2=C(C(=O)O)N3C(=O)[C@@H](NC(=O)Cn4cnnn4)[C@H]3SC2)s1 [Cephazolin, reference compound]")
0.19
>>> quantitative_readout("O=C(O)CSc1nnc(SCC2=C(C(=O)O)N3C(=O)[C@@H](NC(=O)[C@H](NC(=O)c4csccc4=O)c4ccc(O)cc4)[C@H]3SC2)s1 [Example 31]")
0.39
>>> quantitative_readout("Cc1nc(SCC(=O)O)cc(SCC2=C(C(=O)O)N3C(=O)[C@@H](NC(=O)[C@H](NC(=O)c4cnccc4O)c4ccccc4)[C@H]3SC2)n1 [Example 17]")
0.39
>>> quantitative_readout("O=C(O)Cn1nc(SCC2=C(C(=O)O)N3C(=O)[C@@H](NC(=O)[C@H](NC(=O)c4cnccc4O)c4ccccc4)[C@H]3SC2)ccc1=O [Example 18]")
0.39
>>> quantitative_readout("CC(Sc1nnc(SCC2=C(C(=O)O)N3C(=O)[C@@H](NC(=O)[C@H](NC(=O)c4cnccc4O)c4ccccc4)[C@H]3SC2)s1)C(=O)O (some centres unmarked) [Example 21]")
0.39
>>> quantitative_readout("O=C(O)CCCc1nnc(SCC2=C(C(=O)O)N3C(=O)[C@@H](NC(=O)[C@H](NC(=O)c4cnccc4O)c4ccccc4)[C@H]3SC2)s1 [Example 35]")
0.78
>>> quantitative_readout("O=C(O)Cc1nnc(SCC2=C(C(=O)O)N3C(=O)[C@@H](NC(=O)[C@H](NC(=O)c4cnccc4O)c4ccccc4)[C@H]3SC2)s1 [Example 25]")
0.39
>>> quantitative_readout("Nn1c(SCC(=O)O)nnc1SCC1=C(C(=O)O)N2C(=O)[C@@H](NC(=O)[C@H](NC(=O)c3cnccc3O)c3ccccc3)[C@H]2SC1 [Example 30]")
0.78
>>> quantitative_readout("O=C(O)CSc1cc(SCC2=C(C(=O)O)N3C(=O)[C@@H](NC(=O)[C@H](NC(=O)c4cnccc4O)c4ccccc4)[C@H]3SC2)ncn1 [Example 16]")
0.19
>>> quantitative_readout("O=C(O)CSc1nsc(SCC2=C(C(=O)O)N3C(=O)[C@@H](NC(=O)[C@H](NC(=O)c4cnccc4O)c4ccccc4)[C@H]3SC2)n1 [Example 13]")
0.39
>>> quantitative_readout("Cc1nc(SCC2=C(C(=O)O)N3C(=O)[C@@H](NC(=O)[C@H](NC(=O)c4cnccc4O)c4ccccc4)[C@H]3SC2)sc1SCC(=O)O [Example 24]")
0.39
>>> quantitative_readout("O=C(O)CCC(=O)Nc1nnc(SCC2=C(C(=O)O)N3C(=O)[C@@H](NC(=O)[C@H](NC(=O)c4csccc4=O)c4ccccc4)[C@H]3SC2)s1 [Example 1]")
0.39
>>> quantitative_readout("O=C(O)CSc1nnc(SCC2=C(C(=O)O)N3C(=O)[C@@H](NC(=O)[C@H](NC(=O)c4cnccc4O)c4ccccc4)[C@H]3SC2)s1 [Example 4]")
0.19
>>> quantitative_readout("O=C(O)CCc1nnc(SCC2=C(C(=O)O)N3C(=O)[C@@H](NC(=O)[C@H](NC(=O)c4cnccc4O)c4ccccc4)[C@H]3SC2)s1 [Example 6]")
0.39

These data points were gathered from patent US4068074A.
